Ref: patent US10918641B2

Assay: physchem
Conditions: PBS, aqueous buffer
valueType: solubility

// recorded solubility for CSC[C@H]1CN(Cc2c[nH]c3c(N)ncnc23)C[C@@H]1O : 156 mM
